SYSTEM NAME: T1, human SIRPA_V1 protein (human, UniProt P78324 31-504)
T1 construct: Expressed on 293α cells from pcDNA3.2 V5-DEST or pFLAG V5-DEST (FLAG-tagged) vectors; also called human SIRPA Variant 1; hSIRPA V1
T1 sequence (P78324 31-504 limits assumed): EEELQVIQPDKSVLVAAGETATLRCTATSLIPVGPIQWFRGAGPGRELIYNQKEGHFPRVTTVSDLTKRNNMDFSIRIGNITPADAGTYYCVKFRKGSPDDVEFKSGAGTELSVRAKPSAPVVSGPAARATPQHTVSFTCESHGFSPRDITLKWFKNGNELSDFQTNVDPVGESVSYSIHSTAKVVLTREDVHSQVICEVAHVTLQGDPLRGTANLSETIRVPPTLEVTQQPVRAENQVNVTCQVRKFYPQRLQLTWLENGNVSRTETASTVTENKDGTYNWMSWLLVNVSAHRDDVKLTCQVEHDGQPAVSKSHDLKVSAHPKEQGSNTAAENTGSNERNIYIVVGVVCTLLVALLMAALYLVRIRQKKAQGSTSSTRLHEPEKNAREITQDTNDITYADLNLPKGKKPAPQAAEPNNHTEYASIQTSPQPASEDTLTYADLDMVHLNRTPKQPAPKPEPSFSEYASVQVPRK
ASSAY OVERVIEW: cell-based ELISA on 293α cells expressing FLAG-tagged SIRPA_V1; Abs 490 normalized to FLAG tag
QUANTITY KIND: EC50 (read off the curve)

[
  {
    "BINDER": "cF44 (IgG1) (antibody, V domains shown, Human IgG1 constant region; also called cF44 IgG1 type) VH: EVQLVESGGGLVQPGRSLKLSCAASGFTFSNYYMAWVRQAPTKGLEWVTYITTGGGSTYFRDSVKGRFTISRDNAESTLYLQMDSLRSEDTATYYCTAANYGGSYFDYWGQGVMVTVSS VL: DVQMTQSPSNLAASPGESVSINCKASKSISKYLAWYQQKPGKANKLLIYSGSTLQSGTPSRFSGSGSGTDFTLTIRNLEPEDFGLYYCQQHNEYPPTFGAGTKLELK",
    "QUANTITY KIND": "EC50 (read off the curve)",
    "VALUE OBSERVED": "~0.04 µg/mL"
  }
]

Please look at the following binder next.
What value of EC50 (read off the curve) has been recorded for this entry: human chimeric anti-SIRPA antibody cF63 (antibody, human IgG4 S228P, lambda, F234A L235A, V domains shown, Human IgG4proFALA heavy chain, human lambda light chain; also called cF63 (IgG4pf); human chimeric antibody F63) VH: QVQLKESGPGLVQPSETLSLTCTVSGFSLASYSLSWVRQPSGKGPEWMGRMYYDGDTAYNSALKSRLSISRDTSKNQVFLKMNSLQTDDTGTYYCTRDRSMFGTDYPHWYFDFWGPGTMVTVSS VL: QFTLTQPKSVSGALRSTITIPCERSSGDIGDSYVSWYQRHLGRPPINVIYADDQRPSEVSDRFSGSIDSSSNSASLTITNLQMDDEADYFCQSYDSKIDIFGGGTKLTVLG
~0.05 µg/mL
